experimentalSystem: human A2B receptors (Homo sapiens)
Construct: expressed in transfected cells; host or cells: HEK-293
Sequence (P29275 whole entry): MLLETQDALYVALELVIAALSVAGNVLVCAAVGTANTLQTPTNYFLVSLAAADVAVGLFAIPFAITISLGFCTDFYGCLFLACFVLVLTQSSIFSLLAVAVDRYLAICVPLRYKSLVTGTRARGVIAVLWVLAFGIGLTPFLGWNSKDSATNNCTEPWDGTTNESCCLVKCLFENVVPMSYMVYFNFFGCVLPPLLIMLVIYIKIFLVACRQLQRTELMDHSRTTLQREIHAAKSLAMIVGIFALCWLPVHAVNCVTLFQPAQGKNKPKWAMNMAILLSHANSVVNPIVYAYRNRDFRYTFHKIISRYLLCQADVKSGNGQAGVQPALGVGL
experimentalDetails: Binding at human A2B receptors expressed in HEK-293 cells vs [3H]ZM241385
measurementContext: ratio of Ki rat A1 to Ki human A2B
measuredEndpoint: rA1/hA2B

compound	experimentalSystem	measuredEndpoint	val
CCCn1c(=O)c2[nH]c(-c3ccc(OCC(=O)NN4C(=O)C5=C(CCC5)C4=O)cc3)nc2n(CCC)c1=O [Compound 19b]	human A2B receptors (Homo sapiens)	rA1/hA2B	1.9

[A] CCCn1c(=O)c2[nH]c(-c3ccc(OCC(=O)NN4C(=O)CCC(c5ccccc5)C4=O)cc3)nc2n(CCC)c1=O (stereo not drawn)
[B] CCCn1c(=O)c2[nH]c(-c3ccc(OCC(=O)NN4C(=O)CC(O)CC4=O)cc3)nc2n(CCC)c1=O
Exercise: I need your help: which of the pair A , B has higher rA1/hA2B? Select an item and report its label.
Solution: B
(B: 1.6, A: 1.0)
